Ref: patent US20230099344A1

Molecular target: UniProt Q9NWZ3
Sequence (Q9NWZ3 whole entry): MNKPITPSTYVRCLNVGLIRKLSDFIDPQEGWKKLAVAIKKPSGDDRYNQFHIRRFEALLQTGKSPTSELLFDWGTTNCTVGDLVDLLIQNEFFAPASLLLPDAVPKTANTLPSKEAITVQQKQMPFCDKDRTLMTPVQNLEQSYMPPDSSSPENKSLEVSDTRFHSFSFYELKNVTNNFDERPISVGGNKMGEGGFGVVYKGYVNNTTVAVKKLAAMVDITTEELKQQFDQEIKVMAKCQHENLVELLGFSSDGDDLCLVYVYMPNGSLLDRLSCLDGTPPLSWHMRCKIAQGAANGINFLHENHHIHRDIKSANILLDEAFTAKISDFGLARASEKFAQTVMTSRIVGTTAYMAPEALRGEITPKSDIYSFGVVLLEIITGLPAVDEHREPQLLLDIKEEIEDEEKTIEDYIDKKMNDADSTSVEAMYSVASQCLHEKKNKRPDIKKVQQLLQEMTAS
Experiment: IRAK-4 ELISA, PBMC degradation
Type: cell-based
Set-up: endogenous in cells; host or cells: PBMC
Settings: treated overnight
measurement-name: Dmax

Look over these answered cases.
O=C1CCC(N2Cc3cc(N4CC(F)(CN5CCC(N6Cc7cc(NC(=O)c8cnn9cccnc89)c(N8CCC(N9CCC9)CC8)cc7C6=O)CC5)C4)ccc3C2=O)C(=O)N1 (centres unmarked) [Example 117]: ≥ 90%
COc1cc2nn(C3CCN(CC4(F)CN(c5ccc6c(c5)C(=O)N(C5CCC(=O)NC5=O)C6=O)C4)CC3)cc2cc1NC(=O)c1cnn2ccc(C3C[C@H]4C[C@@H]3CO4)nc12 (some centres unmarked) [Example 238]: 70 to 80%
CN(C1CN(c2ccc3c(c2)C(=O)N(C2CCC(=O)NC2=O)C3=O)C1)[C@H]1CC[C@H](n2cc3cc(NC(=O)c4cnn5cccnc45)c(C4CC4)cc3n2)CC1 (some centres unmarked) [Example 343]: ≥ 90%
O=C1CCC(N2C(=O)c3ccc(O[C@H]4C[C@H](N[C@H]5CC[C@H](n6cc7cc(NC(=O)c8cnn9cccnc89)c(OCC8CC8)cc7n6)CC5)C4)cc3C2=O)C(=O)N1 (some centres unmarked) [Example 374]: ≥ 90%
O=C1CCC(N2C(=O)c3ccc(N4CC(F)(CN5CCC(n6cc7cc(NC(=O)c8cnn9cccnc89)c(C(F)F)cc7n6)CC5)C4)cc3C2=O)C(=O)N1 (centres unmarked) [Example 408]: ≥ 90%
CC(C)Oc1cc2nn([C@H]3CC[C@H](N(C)C4CCN(c5ccc6c(c5)C(=O)N(C5CCC(=O)NC5=O)C6=O)CC4)CC3)cc2cc1NC(=O)c1cnn2cccnc12 (some centres unmarked) [Example 317]: ≥ 90%

For the 3 molecules below, give their Dmax values.
1. CC(C)Oc1nc2c(cc1NC(=O)c1cnn3cccnc13)CN(C1CCN(CC3CN(c4ccc5c(c4)CN(C4CCC(=O)NC4=O)C5=O)C3)CC1)C2=O (centres unmarked) [Example 401]
2. CC(C)Oc1cc2nn(C3CCN(CC4(F)CN(c5ccc6c(n5)C(=O)N(C5CCC(=O)NC5=O)C6=O)C4)CC3)cc2cc1NC(=O)c1cnn2cccnc12 (centres unmarked) [Example 411]
3. CC(C)Oc1nc2c(cc1NC(=O)c1cnn3cccnc13)CN(C1CCN(CC3CN(c4ccc5c(c4)C(=O)N(C4CCC(=O)NC4=O)C5=O)C3)CC1)C2=O (centres unmarked) [Example 398]

Result:
≥ 90%
80 to 90%
≥ 90%

For the 2 molecules below, give their Dmax values.
1. COc1cc(N2CC(F)(CN3CCC(n4cc5cc(NC(=O)c6cnn7cccnc67)c(OCC6CC6)cc5n4)CC3)C2)cc2c1C(=O)N(C1CCC(=O)NC1=O)C2=O (centres unmarked) [Example 240]
2. CC(C)Oc1cc2c(cc1NC(=O)c1cnn3cccnc13)CN(C1CCN(CC3CCN(c4cc5c(cc4F)C(=O)N(C4CCC(=O)NC4=O)C5=O)CC3)CC1)C2=O (centres unmarked) [Example 13]

Result:
["80 to 90%", "≥ 90%"]
